Measured Target: NRAS G12C (Homo sapiens (Human), UniProt P01111+P62937, G12C)
Sequence (P01111 whole entry G12C): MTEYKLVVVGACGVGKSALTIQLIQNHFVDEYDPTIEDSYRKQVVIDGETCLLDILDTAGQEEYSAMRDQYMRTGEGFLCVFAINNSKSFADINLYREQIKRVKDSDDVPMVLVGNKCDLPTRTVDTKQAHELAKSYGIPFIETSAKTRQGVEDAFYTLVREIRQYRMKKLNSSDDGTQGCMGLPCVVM
Sequence (P62937 whole entry): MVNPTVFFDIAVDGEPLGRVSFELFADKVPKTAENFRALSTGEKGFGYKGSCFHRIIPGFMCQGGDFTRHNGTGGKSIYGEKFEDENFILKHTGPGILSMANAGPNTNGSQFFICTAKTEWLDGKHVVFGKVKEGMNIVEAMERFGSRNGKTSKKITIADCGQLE
Assay Notes: Ras-Raf disruption/FRET/MOA assay (BRAF RBD, Cyclophilin A)
Type: biochemical
Test Parameters: read-out: NRAS G12C FRET data IC50
Measured Attribute: IC50

NRAS G12C (Homo sapiens (Human), UniProt P01111+P62937, G12C) data for `CCn1c(-c2cc(N3CCN(C)CC3)cnc2[C@H](C)OC)c2c3cc(ccc31)-c1csc(n1)C[C@H](NC(=O)[C@H](C(C)C)N(C)C(=O)N1CC(C3COC3)C1)C(=O)N1CCC[C@H](N1)C(=O)OCC(C)(C)C2` ; its IC50: 10 to 100 nM

Others:
Given the compound `CCn1c(-c2cccnc2[C@H](C)OC)c2c3cc(ccc31)-c1cc(O)cc(c1)C[C@H](NC(=O)[C@H](C(C)C)N(C)C(=O)[C@H]1CC[C@@H](C(N)=O)O1)C(=O)N1CCC[C@H](N1)C(=O)OCC(C)(C)C2` and test system NRAS G12C (Homo sapiens (Human), UniProt P01111+P62937, G12C), the measured IC50 is 10 to 100 nM

// provenance: patent US20250195521A1
